Tested on: human osteosarcoma Saos-2 cells
method: Cytotoxicity, CCK-8 bioassay
Format: cell-based
setup-conditions: read-out: IC50, cytotoxicity, 72 h incubation, CCK-8, concentrations as hydrazone-bound DOX content, mean ± SEM of three experiments
readout-label: pIC50
// returns pIC50 (minus log10 of molar concentration), number only

INPUT: May I ask what pIC50 has been recorded for COc1cccc2c1C(=O)c1c(O)c3c(c(O)c1C2=O)C[C@@](O)(C(=O)CO)C[C@@H]3O[C@H]1C[C@H](N)[C@H](O)[C@H](C)O1 [Free DOX, Doxorubicin] ?
OUTPUT: 7.11
